assay: Plasma clearance in Sprague-Dawley rat at 1 mg/kg, iv measured after 24 hrs; format: ADME, organism-based
measured-endpoint: clearance (mL/min/kg)

[1] C[C@H](NC(=O)[C@]1(NC(=O)c2cc(Cl)c(Cl)[nH]2)CO[C@H](c2ccc(F)cc2)C1)c1ncc2c(n1)CN(C1CCN(C)CC1)C2
[2] C[C@H](NC(=O)[C@]1(NC(=O)c2cc(Cl)c(Cl)[nH]2)CO[C@H](c2ccccc2)C1)c1ncc2c(n1)COC2
Among 1 and 2 , which shows a numerically higher clearance result? Your choice should be expressed through its label.
2
(2: 46.7 mL/min/kg, 1: 21.7 mL/min/kg)

[P] C[C@H](NC(=O)[C@]1(NC(=O)c2cc(Cl)c[nH]2)CO[C@H](c2ccccc2)C1)c1ncc2c(n1)CN(C1CCN(C)CC1)C2
[Q] COCc1ccc([C@@H]2C[C@](NC(=O)c3cc(Cl)c(Cl)[nH]3)(C(=O)N[C@@H](C)c3ncc4c(n3)CN(C3CCN(C)CC3)C4)CO2)cc1
Between item P and item Q , which reported clearance is smaller? Your choice should be expressed through its label.
P
(P: 21.7 mL/min/kg, Q: 33.3 mL/min/kg)
